melting point: recorded values
Report the value in °C with no unit label.

Molecule | Endpoint Unit | Result Value
O=C1C(Cl)=C(Nc2ccccc2)C(=O)c2ccccc21 | °C | 215
COC(=O)c1cc(Br)cc(Br)c1 | °C | 63

Entry COc1ccc2[nH]cc(CCN(C)C)c2c1 : reported melting point = ? 69.5

Next record, please: O=C(O)C(C(F)(F)F)C(F)(F)F 52

Next record, please: Cc1ccc2c(C)cccc2c1C 33.5

Next record, please: Cc1cccc2cccc(C)c12 65

Next record, please: CC(C)(C)C(N)C(=O)O (racemic) 300

###

Measured Attribute: melting point (°C)
Report the value in °C with no unit label.

Compound | Endpoint Unit | melting point
O=C(NCc1ccccc1)c1cccnc1Cl | °C | 120

Entry CN1COCc2c1ccc1cc3ccc(N)c(CO)c3nc21 : reported melting point = ? 235

Next record, please: O=C(C1=NN(c2ccccc2)C2C(=O)N(c3ccc(Br)cc3)C(=O)C12)c1ccc(Cl)cc1 (stereo not given) 255

Next record, please: O=C(C(Cl)Cl)C(Cl)(Cl)Cl 2.1

Next record, please: Cn1ccc(=O)c2ccccc21 152

Next record, please: O=C(O)CNC(CO)(CO)CO 187

Next record, please: Nc1cc(Cl)ccc1[N+](=O)[O-] 128
